- ASSAY: Oral bioavailability in mouse at 1 mg/kg
- Type: ADME, organism-based
- CONDITION_DETAILS: in vivo
# bioavailability >= 30% gives satisfied, anything below gives not satisfied

As a guide, the following entries are already answered.
MOLECULE | ANSWER_LABEL
Cc1cc(C2CCN(C(=O)[C@@H]3CN(C(C)(C)C)C[C@H]3c3ccc(F)cc3F)CC2)n(-c2ccc(Cl)cc2F)n1 | satisfied
Cc1cc(C2CCN(C(=O)[C@@H]3CN(C(C)(C)C)C[C@H]3c3ccc(F)cc3F)CC2)n(-c2ccc(C)c(Cl)c2)n1 | not satisfied
Cc1cc(C2CCN(C(=O)[C@@H]3CN(C(C)(C)C)C[C@H]3c3ccc(F)cc3F)CC2)n(-c2ccc(Cl)c(C)c2)n1 | not satisfied

hey, is bioavailability for this one >= 30%? CC(C)(C)N1C[C@@H](C(=O)N2CCC(c3ccnn3-c3ccc(F)c(Cl)c3)CC2)[C@H](c2ccc(F)cc2F)C1
not satisfied

hey, is bioavailability for this one >= 30%? O=C([C@@H]1CNC[C@H]1c1ccc(F)cc1F)N1CCC(c2ccnn2-c2ccc(F)c(Cl)c2)CC1
not satisfied

hey, is bioavailability for this one >= 30%? Cc1cc(C2CCN(C(=O)[C@@H]3CN(C(C)(C)C)C[C@H]3c3ccc(F)cc3F)CC2)n(-c2ccc(Cl)cc2)n1
not satisfied

hey, is bioavailability for this one >= 30%? Cc1cc(C2CCN(C(=O)[C@@H]3CN(C(C)(C)C)C[C@H]3c3ccc(F)cc3F)CC2)n(-c2ccc(F)c(F)c2)n1
satisfied
